Target: native mouse MET on living mouse cells (mouse, UniProt P16056 25-1379)
Assay: cell-based or functional assay
MEASUREMENT_TYPE: protection from staurosporine, viability EC50, MLP29 (nM)

• chimeric llama-human IgG1 mAb 71C3 (antibody, V domains shown) VH: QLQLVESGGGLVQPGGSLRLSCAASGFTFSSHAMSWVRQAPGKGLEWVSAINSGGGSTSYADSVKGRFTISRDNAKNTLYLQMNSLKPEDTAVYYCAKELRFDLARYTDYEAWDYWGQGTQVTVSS VL: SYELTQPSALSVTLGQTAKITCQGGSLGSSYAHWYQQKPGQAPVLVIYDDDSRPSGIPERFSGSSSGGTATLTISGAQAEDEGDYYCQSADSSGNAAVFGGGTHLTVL = 31
• chimeric llama-human IgG1 mAb 71D6 (antibody, V domains shown) VH: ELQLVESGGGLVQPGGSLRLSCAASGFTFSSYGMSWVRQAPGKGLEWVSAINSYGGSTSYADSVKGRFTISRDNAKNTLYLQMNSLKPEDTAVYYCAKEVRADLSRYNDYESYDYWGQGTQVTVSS VL: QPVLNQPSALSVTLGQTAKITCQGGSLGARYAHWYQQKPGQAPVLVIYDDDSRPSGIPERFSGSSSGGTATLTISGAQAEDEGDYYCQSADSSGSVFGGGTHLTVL = 0.95
• chimeric llama-human IgG1 mAb 71G3 (antibody, V domains shown) VH: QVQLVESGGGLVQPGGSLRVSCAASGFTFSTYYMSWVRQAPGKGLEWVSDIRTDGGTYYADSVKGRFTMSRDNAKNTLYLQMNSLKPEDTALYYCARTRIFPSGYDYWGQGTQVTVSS VL: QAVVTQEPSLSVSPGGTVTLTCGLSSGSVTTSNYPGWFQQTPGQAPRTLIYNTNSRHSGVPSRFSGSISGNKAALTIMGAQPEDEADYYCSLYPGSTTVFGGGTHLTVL = 4.85
